# experiment: clearance of mutant huntingtin inclusions, primary screen, imaging, HeLa Exon1htt(103Q)mCFP, confocal imaging (AID 853);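 note: cells exposed to compound for three days before fixation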
# condition.parameters: aggregate imaging, at 1.5 µM, zero = plate's median compound well
Among all 47,000 compounds or so, about 200 (0.43%) were called active. Another 1% or so got no clear call; they are omitted.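 Rule for the calls: active = inhibition of aggregate fluorescence above about 70%, also judged a hit by eye on the cell image (limit read from the data, passing the limit was not always enough); inconclusive = no rule stated for this call; inactive = not judged a hit on image review.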 Only a selection was taken, and actives are over-represented in it overall.
The reply should be one of these categories: active, inactive

What call does the record list for CCOc1ccccc1C1NC(=O)NC(C)=C1C(=O)OCc1ccco1 (stereo not given) ?
inactive

Identify the outcome logged in this assay for the compound shown: Cc1cc2cc(CN(Cc3cccs3)Cc3nnnn3CC3CCCO3)c(=O)[nH]c2cc1C (stereo not given)
inactive

GET /call?item= Cc1cc(C(=O)Nc2ccccc2N2CCOCC2)c2ccccc2n1 returns the recorded outcome of this test.
inactive

Given COc1ccc(/C=C(\NC(=O)c2ccc(OC)c(OC)c2)C(=O)NCCc2c[nH]c3ccccc23)cc1 , state the outcome it received in this test.
inactive

Test call for this compound, please: CCC(=O)c1ccc(OCC(O)CN2CCN(c3cccc(C(F)(F)F)c3)CC2)cc1 (stereo not given)
inactive

Tell me the assay call for CCOc1ccc(NC(=O)CCC(=O)n2nc(C)cc2C)cc1 please.
active

Which outcome did this test record for the compound COc1ccccc1-c1nnc(SCC(=O)Nc2ccccc2)o1 ?
active

Test call for this compound, please: Cc1cc(C)c2c(-n3cccc3)c(NC(=O)OCc3ccccc3)sc2n1
inactive

Check the results log: what was the call for O=C(O)c1ccc(NS(=O)(=O)c2cccc3nsnc23)cc1 ?
active

Test call, this compound: O=S(=O)(/C=C/c1ccccc1)NCCc1ccccn1
inactive

Check the results log: what was the call for COc1ccc(Cl)cc1C(=O)NCC#N ?
inactive
